Target: Pro-neuregulin-1, membrane-bound isoform (Homo sapiens)
Assay: small molecules binding neuregulin-1 protein – biochemical, small-molecule microarray, fluorescence 635/667, psychiatric disease protein project, primary screen (AID 1075);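 further: score combines 667 nm spot fluorescence with signal to noise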
Conditions: NRG1 binding, 635 nm fluorescence, higher = more signal
Assignment: determine reported composite z-score for the given molecules.
Lab note: record just the number, no unit beside it.

So, `Cc1ccc(S[C@]2(C(=O)NCc3ccccc3)CC(=O)N(C3CCCCC3)[C@@H]2c2ccc(CO)cc2I)cc1` ? Its composite z-score was 1.17

So, `[N-]=[N+]=NCc1ccccc1[C@@H]1OC(c2ccc(OCCCO)cc2)=N[C@]1(CCS(=O)(=O)c1ccccc1)C(=O)O` ? Its composite z-score was 1.92

So, `C#Cc1cc2ccccc2oc1=O` ? Its composite z-score was 0.785

So, `COC(=O)[C@@]1(Cc2ccc(F)cc2)[C@H]2c3cc(C(=O)N(C)C)n(Cc4ccc(OC(F)(F)F)cc4)c3C[C@H]2CN1C(=O)c1ccccc1` ? Its composite z-score was 0.109

So, `CO[C@H]1O[C@H](CO)[C@@H](OC(=O)Nc2ccc3c(c2)OCO3)[C@H](OC(=O)Nc2ccc3c(c2)OCO3)[C@@H]1OC(=O)Nc1ccc2c(c1)OCO2` ? Its composite z-score was 1.78

So, O=C1C2C=CC(C(O)C3CC=CCC3)N(Nc3ccccc3)C2C(=O)N1c1ccccc1 (centres undefined) ? Its composite z-score was 1.3

So, `CC(C)NC(=O)[C@@]1(C)c2ccccc2C(=O)N(Cc2ccc(OC(F)(F)F)cc2)[C@H]1c1ccc(CO)cc1` ? Its composite z-score was 0.628

So, `CC(C)[Si](C#CCCCC#N)(O[C@H](c1ccccc1)c1cn(Cc2ccccc2)nn1)C(C)C` ? Its composite z-score was 0.048

So, `O=C(c1ccccc1)N1C(=O)[C@]2(Cc3ccccc31)N=C(c1ccc(OCCCO)cc1)O[C@@H]2c1ccccc1` ? Its composite z-score was 1.61
